target: Human ASBT (Homo sapiens); assay: ASBT inhibition assay: [3H]-taurocholic acid uptake in HEK293T cells transiently transfected with human ASBT; conditions: inhibitor concentration that gives 50% taurocholate uptake compared to no inhibitor control
Sequence (Q12908 whole entry): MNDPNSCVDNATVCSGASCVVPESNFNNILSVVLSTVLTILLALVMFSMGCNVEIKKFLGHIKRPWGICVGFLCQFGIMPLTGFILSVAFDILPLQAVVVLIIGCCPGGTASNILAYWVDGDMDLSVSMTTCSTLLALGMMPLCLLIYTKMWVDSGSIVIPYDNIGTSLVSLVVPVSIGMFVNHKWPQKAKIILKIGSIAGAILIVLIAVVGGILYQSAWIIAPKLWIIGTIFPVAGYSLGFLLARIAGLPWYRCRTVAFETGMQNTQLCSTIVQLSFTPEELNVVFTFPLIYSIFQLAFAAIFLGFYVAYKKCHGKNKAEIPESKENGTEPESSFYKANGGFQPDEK
Endpoint Name: pIC50
Worth noting: pIC50 values are minus log10 of concentrations stated in mol/L.

// worked examples, pIC50 included
                            compound_string  endpoint_name  observed_value
0  O=C(Nc1ccc(F)c(Cl)c1)c1ccccc1NS(=O)(=O)c1cccc([N+](=O)[O-])c1          pIC50            5.88
1  O=C(Nc1cccc(OC(F)(F)F)c1)c1ccccc1NS(=O)(=O)c1cccc(OC(F)(F)F)c1          pIC50            5.99
2  Cc1ccc(NC(=O)c2ccccc2NS(=O)(=O)c2cccc(OC(F)(F)F)c2)cc1C(F)(F)F          pIC50            6.08
3  O=C(Nc1ccc(Cl)c(Cl)c1)c1ccccc1NS(=O)(=O)c1cccc(OC(F)(F)F)c1          pIC50            5.91
4  O=C(Nc1cccc(OC(F)F)c1)c1ccccc1NS(=O)(=O)c1cccc([N+](=O)[O-])c1          pIC50            5.55
5  O=C(Nc1cccc(OC(F)(F)F)c1)c1ccccc1NS(=O)(=O)c1cccc([N+](=O)[O-])c1          pIC50            5.91

Enter reported pIC50 observed with Human ASBT (Homo sapiens) for Cc1ccc(NC(=O)c2ccccc2NS(=O)(=O)c2cccc([N+](=O)[O-])c2)cc1C(F)(F)F
5.83

Now try O=C(Nc1ccc(F)c(Cl)c1)c1ccccc1NS(=O)(=O)c1cccc(OC(F)(F)F)c1 .
6.96

Now try O=C(Nc1ccc(Cl)cc1Cl)c1ccccc1NS(=O)(=O)c1cccc(OC(F)(F)F)c1 .
6.04

====

target: Human ASBT (Homo sapiens); construct: expressed in transfected cells; host or cells: HEK293T; test: ASBT inhibition assay: [3H]-taurocholic acid uptake in HEK293T cells transiently transfected with human ASBT; format: cell-based; conditions: HEK-293T
Categorize each record by its inhibition at 10 µM using zone 1: < 30%; zone 2: ≥ 30% and < 60%; zone 3: ≥ 60%

>>> df
                            compound_string   label
0  COc1cccc(S(=O)(=O)Nc2ccccc2C(=O)Nc2ccc(Cl)cc2Cl)c1  zone 1
1  O=C(Nc1cccc(OC(F)(F)F)c1)c1ccccc1NS(=O)(=O)c1cccc(F)c1  zone 2
2  O=C(Nc1ccc(F)c(Cl)c1)c1ccccc1NS(=O)(=O)c1ccc([N+](=O)[O-])cc1  zone 3
3  O=C(Nc1ccc(Cl)c(Cl)c1)c1ccc(NS(=O)(=O)c2cccc([N+](=O)[O-])c2)cc1  zone 2

Band for the recorded inhibition at 10 µM of O=C(Nc1cccc(OC(F)(F)F)c1)c1ccccc1NS(=O)(=O)c1cccc(OC(F)(F)F)c1 ?
zone 3

Now try O=C(Nc1ccc(Cl)c(Cl)c1)c1ccccc1NS(=O)(=O)c1cccc(F)c1 .
zone 2

Now try COc1cccc(S(=O)(=O)Nc2ccccc2C(=O)Nc2cccc(OC(F)(F)F)c2)c1 .
zone 1

Now try O=C(Nc1ccc(Cl)c(Cl)c1)c1ccccc1NS(=O)(=O)c1ccc([N+](=O)[O-])cc1 .
zone 3

Now try O=C(Nc1ccc(Cl)cc1Cl)c1ccccc1NS(=O)(=O)c1ccc([N+](=O)[O-])cc1 .
zone 3

Now try O=C(Nc1ccc(Cl)c(Cl)c1)c1cccc(NS(=O)(=O)c2cccc([N+](=O)[O-])c2)c1 .
zone 3

Now try O=C(Nc1cc(F)cc(F)c1)c1ccccc1NS(=O)(=O)c1cccc([N+](=O)[O-])c1 .
zone 1

Now try COc1cccc(S(=O)(=O)Nc2ccccc2C(=O)Nc2ccc(Cl)c(Cl)c2)c1 .
zone 1

Value source: paper PMC6269792
